meta.source: PubChem BioAssay

Molecular target: NADPH oxidase 5 (Homo sapiens)
Experiment: NOX5-dependent H2O2 signal modulators, primary screen, NOX inhibitor project, cell-based, HEK293-NOX5, Amplex Red fluorescence (AID 1161)
Conditions: HEK293-NOX5, ionomycin, 45 min, higher = more signal
metric: z-score

Lab note: measured z-score of C=C(C)C(=O)OC[C@H]1CN2[C@@H](CC[C@@H](C)[C@@H]2c2ccc(Br)cc2)C(=O)O1 was -1.61

Lab note: measured z-score of CCOC(=O)[C@H](Cc1ccccc1)NC(=O)CCC1CC(OC(=O)NCc2cccc3ccccc23)CC2(CCCC(COC(=O)NCc3ccc4c(c3)OCO4)O2)O1 (some centres not stated) was 0.712

Lab note: measured z-score of O=C1[C@H]2[C@H]3[C@H](O)[C@H](O)CC(=NO[C@@H]4O[C@H](CO)[C@@H](O)[C@H](O)[C@H]4O)[C@@H]3CC[C@H]2C(=O)N1C[C@@H]1CCCO1 was -0.711

Lab note: measured z-score of COC(=O)[C@H](C)NC(=O)CCC1CC(OC(=O)NCc2ccc3c(c2)OCO3)CC2(CCCC(COC(=O)NCCc3ccc(Cl)cc3)O2)O1 (some centres not stated) was 0.879

Lab note: measured z-score of CO[C@H]1COC(=O)[C@H](C)COC(=O)[C@H](C)NC(=O)CC=C[C@H]1C was -0.42

Lab note: measured z-score of CC(CCC(=O)OC[C@H]1O[C@H](C#Cc2ccccc2)C=C[C@@H]1Oc1ccc(C)cc1)=NO[C@@H](C)c1cc(-c2c(C)cc(C)cc2C)no1 was 0.287

Lab note: measured z-score of CC(CCN1CCCc2nc(C)c(C)cc21)=NOC[C@@H](C)[C@H](OCc1ccccc1)C(C)C was -1.12

----------
Assay: A549 lung cancer cell viability effects, profiling panel, resazurin fluorescence, 24 h, PK04 Diversity Set (AID 1171); also: test concentration not given here
Conditions: higher = more signal, called active from +8 up or from −8 down
Bucketed by reported z-score, buckets being low-valued: < -0.5; mid-valued: ≥ -0.5 and < 0.06; high-valued: ≥ 0.06

Request: Field: class (z-score) — entry: O=C(NN=C1C[C@@H](O)[C@@H](O)[C@@H]2[C@@H]3C(=O)N(Cc4ccccc4)C(=O)[C@@H]3CC[C@H]12)OCc1ccccc1
Response: high-valued

Request: Field: class (z-score) — entry: CCCCOC(OCCCC)C(O)CSc1ccc2ccccc2c1 (configuration not stated)
Response: low-valued

Request: Field: class (z-score) — entry: COc1ccc(COC(=O)NN=C2C[C@@H](O)[C@@H](O)[C@@H]3[C@@H]4C(=O)N(C[C@@H]5CCCO5)C(=O)[C@@H]4CC[C@H]23)cc1
Response: mid-valued

Request: Field: class (z-score) — entry: CC(C)=CCCC(C)=CCON=C1[C@H]2CCn3c(=O)n(-c4ccccc4)c(=O)n3[C@H]2[C@H](O)[C@@H]2O[C@H]12
Response: low-valued

Request: Field: class (z-score) — entry: CC(=O)OC[C@H]1O[C@H](CCON=C(C)C)C=C[C@@H]1OC(C)=O
Response: mid-valued

Request: Field: class (z-score) — entry: CO[C@H]1COC(=O)CC=C[C@@H](C)COC(=O)[C@H]2CCCN2C(=O)CC=C[C@H]1C
Response: low-valued

Request: Field: class (z-score) — entry: COCCNC(=O)OCC1CCCC2(CC(OC(=O)NCc3cccc4ccccc34)CC(CCC(=O)N[C@@H](C)C(=O)OC)O2)O1 (some centres not stated)
Response: high-valued

Request: Field: class (z-score) — entry: CO[C@@H](C(C)C)[C@@H](C)C1OC(=O)CC1O (some centres not stated)
Response: mid-valued

Request: Field: class (z-score) — entry: CC(C)CON=C1C[C@@H](O)[C@@H](O)[C@@H]2[C@@H]3C(=O)N(Cc4ccc5c(c4)OCO5)C(=O)[C@@H]3CC[C@@H]12
Response: high-valued

Request: Field: class (z-score) — entry: CC(=O)OC[C@H]1O[C@H](CC=NO[C@@H](C)c2cc(-c3c(C)cc(C)cc3C)no2)C=C[C@@H]1OC(C)=O
Response: mid-valued

Request: Field: class (z-score) — entry: CC(CCC(=O)OC[C@H]1O[C@H](C#Cc2ccccc2)C=C[C@@H]1Oc1ccc(C)cc1)=NO[C@H](C)c1cn([C@@H]2COC[C@H]2O)nn1
Response: low-valued

Request: Field: class (z-score) — entry: COc1ccc(COC(=O)NN=C2C[C@@H](O)[C@@H](O)[C@@H]3[C@@H]4C(=O)N(c5cccc(Oc6ccccc6)c5)C(=O)[C@@H]4CC[C@H]23)cc1
Response: high-valued

Request: Field: class (z-score) — entry: COC(=O)C(C(=O)OC)C1CCCC(=O)C1 (configuration not stated)
Response: low-valued

Request: Field: class (z-score) — entry: O=C1C[C@@H](O)[C@@H](O)[C@@H]2[C@@H]3C(=O)N(c4ccc(F)cc4F)C(=O)[C@@H]3CC[C@H]12
Response: low-valued

Request: Field: class (z-score) — entry: C#CCCCON=C1C[C@@H](O)[C@@H](O)[C@@H]2[C@@H]3C(=O)N(CC)C(=O)[C@@H]3CC[C@H]12
Response: mid-valued

Request: Field: class (z-score) — entry: CCc1cc2c(nc1CC)CCN(CCC(C)=NOC(C)CN1CCCCc3nc(C)c(C)cc31)C2 (configuration not stated)
Response: high-valued

Request: Field: class (z-score) — entry: CC(C)=CCCC(C)=CCON=C1C[C@@H](O)[C@@H](O)[C@@H]2[C@@H]3C(=O)N(Cc4ccc5c(c4)OCO5)C(=O)[C@@H]3CC[C@H]12
Response: mid-valued

Request: Field: class (z-score) — entry: CC(C)[C@@H](OCc1ccccc1)[C@H](C)C=NO[C@H](C)c1cn([C@@H]2COC[C@H]2O)nn1
Response: low-valued

Request: Field: class (z-score) — entry: COc1ccc2c(c1)O[C@@H](c1cccc(C(F)(F)F)c1)[C@H](O)C2=O
Response: low-valued

Request: Field: class (z-score) — entry: CC(CCN1CCc2nc(-c3ccccc3)c(-c3ccccc3)cc2C1)=NO[C@H](C)c1cn([C@H](CO)Cc2ccccc2)nn1
Response: mid-valued

Request: Field: class (z-score) — entry: COC(=O)[C@H](C)NC(=O)CCC1CC(OC(=O)NCc2ccc3c(c2)OCO3)CC2(CCCC(COC(=O)NCCC(C)C)O2)O1 (some centres not stated)
Response: high-valued

Request: Field: class (z-score) — entry: CO[C@H]1COC(=O)[C@H](C)COC(=O)[C@H](C)NC(=O)CC=C[C@H]1C
Response: high-valued

Request: Field: class (z-score) — entry: CC(C)(C)N1C(=O)[C@H]2[C@H]3[C@H](O)[C@H](O)CC(=NNC(=O)OCc4ccccc4)[C@@H]3CC[C@H]2C1=O
Response: low-valued

Request: Field: class (z-score) — entry: COC(=O)CC=C1c2ccccc2[C@H](OC)[C@H]1C
Response: mid-valued

Request: Field: class (z-score) — entry: O=C1[C@H]2[C@H]3[C@H](O)[C@H](O)CC(=NOC[C@@H](O)COCc4ccco4)[C@@H]3CC[C@H]2C(=O)N1c1cccc(Oc2ccccc2)c1
Response: mid-valued

Request: Field: class (z-score) — entry: O=C(NCCC[N+]1=CC=NC1c1ccccc1)N1CCCc2nc(-c3ccc(Br)cc3)ccc21 (configuration not stated)
Response: high-valued

Request: Field: class (z-score) — entry: CCc1cc2c(nc1CC)CCN(CCC(C)=NO[C@@H]1O[C@H](COC(C)=O)[C@@H](OC(C)=O)[C@H](OC(C)=O)[C@H]1OC(C)=O)C2
Response: mid-valued

Request: Field: class (z-score) — entry: CO[C@@H](C1CCCCC1)[C@@H](C)[C@H](OCc1cccc(Br)c1)[C@@H](C)CO
Response: low-valued

Request: Field: class (z-score) — entry: C[C@@H]1CC[C@H]2C(=O)OC(Cc3ccccc3)CN2[C@H]1c1ccc(Br)cc1 (some centres not stated)
Response: high-valued

Request: Field: class (z-score) — entry: C=CCOCC1CN2[C@@H](CC[C@@H](C)[C@@H]2c2ccc(Br)cc2)C(=O)O1 (some centres not stated)
Response: high-valued

Request: Field: class (z-score) — entry: C[C@H]1CC[C@@H](C(=O)O)N[C@@H]1c1cccc(N2CCCC2=O)c1
Response: mid-valued

----------
Assay: E. coli acrAB mutant growth effects, primary screen, E. coli filamentation inducers, strain DRC39, OD650, 48 h (AID 1179);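 also: screen aims at cell division blockers that make cells filament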
Conditions: E. coli DRC39 delta-acrAB growth, higher = more signal, called active from +8 up or from −8 down
For each entry below, report its z-score value.
Enter the number alone.

Lab note: measured z-score of CCOC(=O)[C@H](CC(C)C)NC(=O)CCC1CC(OC(=O)NCc2ccc3c(c2)OCO3)CC2(CCCC(COC(=O)NCCOC)O2)O1 (some centres not stated) was -1.31

Lab note: measured z-score of C#CCCCON=C1[C@H]2CCn3c(=O)n([C@@H](CC)c4ccccc4)c(=O)n3[C@H]2[C@H](O)[C@@H]2O[C@H]12 was -0.567

Lab note: measured z-score of Cc1cc(C)c(-c2cc([C@H](C)ON=C[C@@H](C)[C@H](OCc3ccccc3)C(C)C)on2)c(C)c1 was 0.336

Lab note: measured z-score of CCc1cc2c(nc1CC)CCN(CCC(C)=NOC[C@@H](C)[C@H](OCc1ccccc1)C(C)C)C2 was -0.313

Lab note: measured z-score of CCN1C(=O)[C@H]2[C@@H]3C(=CC[C@H]2C1=O)C(=O)[C@H]1O[C@H]1[C@H]3O was -0.788

Lab note: measured z-score of COC(=O)[C@H](C)NC(=O)CCC1CC(OC(=O)NCCc2ccc(F)cc2)CC2(CCCC(COC(=O)NCCc3ccccc3OC)O2)O1 (some centres not stated) was -0.487

Lab note: measured z-score of CC(C)CON=C1C[C@@H](O)[C@@H](O)[C@@H]2[C@@H]3C(=O)N([C@@H](C)c4ccccc4)C(=O)[C@@H]3CC[C@@H]12 was -0.112
